Biological target: T1, recombinant human CD63 extracellular loop 2 expressed with a C-terminal human Fc tag (human)
T1 construct: also called hCD63 EC loop 2-hFc; human CD63 EC loop 2-Fc
T1 sequence (chain, as listed by the source limits assumed): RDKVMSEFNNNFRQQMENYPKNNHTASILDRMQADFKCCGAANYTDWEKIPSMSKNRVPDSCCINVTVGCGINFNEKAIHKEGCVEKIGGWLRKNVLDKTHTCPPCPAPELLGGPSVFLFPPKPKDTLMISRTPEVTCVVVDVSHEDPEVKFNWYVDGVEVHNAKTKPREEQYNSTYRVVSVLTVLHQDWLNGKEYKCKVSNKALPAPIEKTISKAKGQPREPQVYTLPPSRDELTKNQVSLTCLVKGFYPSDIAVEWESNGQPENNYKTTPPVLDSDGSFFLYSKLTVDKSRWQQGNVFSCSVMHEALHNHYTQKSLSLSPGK
Assay: SPR Biacore, mAb captured, 25C
Cut-off 100 RU on 100 nM Ag Bound (RU): below means YES, at or above means NO.

binder	classification
H2M12452N (antibody, V domains shown, also called H2aM12452N) VH: QVQLQEAGPGLVKPSETLSLTCIVSGGSISGFYWNWIRQPPGKGLEWIGYFLYSGTIDYNPSLKSRVTISVDTSKNQFFLKLSFVTAADTAVYYCVRMGLGANAFDIWGRGTMVTVSS VL: EIVLTQSPGTLSLSPGERATLSCRASQTVSRSFLAWYQQKPGQAPRLLIYGPSSRATGIPDRFSGSGSGTDFTLTISRLEPEDFAVYYCQQYGNSPWTFGQGTKVEIK	YES
H2M12385N (antibody, V domains shown, also called H2bM12385N; H2bM12385) VH: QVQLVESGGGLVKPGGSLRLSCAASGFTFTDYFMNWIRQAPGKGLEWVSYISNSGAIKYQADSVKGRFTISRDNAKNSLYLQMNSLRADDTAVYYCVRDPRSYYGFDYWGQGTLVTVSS VL: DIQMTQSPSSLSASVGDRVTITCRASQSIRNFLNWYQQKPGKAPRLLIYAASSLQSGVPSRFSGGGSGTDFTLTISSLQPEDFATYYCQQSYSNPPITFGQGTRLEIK	NO
H2M12450N (antibody, V domains shown, also called H2aM12450N; mAb12450) VH: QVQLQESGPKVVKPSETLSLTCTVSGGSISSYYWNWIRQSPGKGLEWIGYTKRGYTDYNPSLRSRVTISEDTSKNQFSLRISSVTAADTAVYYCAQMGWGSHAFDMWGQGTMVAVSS VL: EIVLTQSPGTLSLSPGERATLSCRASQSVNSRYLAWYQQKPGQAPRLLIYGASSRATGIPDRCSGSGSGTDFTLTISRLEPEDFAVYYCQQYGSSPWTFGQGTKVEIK	NO

Q: API: query returns whether the binder falls strictly under 100 RU in 100 nM Ag Bound (RU). Query: H1M12386N (antibody, V domains shown) VH: QVQLEESGGGVVKAGGSLRLSCVASGFTFSDYYINWIRQAPGKGLEWVSYINNGGYTIYYADSVKGRFTMSRDNAKNSVYLEMNGLRAEDTAFYYCVRDPRSYYGFDYWGQGTLVTVSS VL: DIQMTQSPSSLSASVGDRVTITCRASQSISSYLNWNQQKPGKAPKLLIYVASSLQSGVPSRFSGSGSGTDFTLTISGLQPEDFAPYYCQQSYITPPITFGQGTRLDIK
Ans: NO

Q: Report whether reported 100 nM Ag Bound (RU) is lower than 100 RU (strictly) for H1M12388N (antibody, V domains shown) VH: QVQLEESGGGVVKAGGSLRLSCAASGFTFSDYYINWIRQAPGKGLEWVSYINNGGYTIYYADSVKGRFTMSRDNAKNSVYLQMNGLRAEDTAFYYCVRDPRSYYGFDYWGQGTLVTVSS VL: DIQMTQSPSSLSASVGDRVTITCRASQSISRFLHWYQQKPGKAPKLLIYGASSLQSGVPSRFSGSGSGTDFTLTISTLQPEDFATYYCQQSYSTPPITFGQGTRLEIK
Ans: NO

Q: Problem: For the binder H2M13022N (antibody, V domains shown, also called H2bM13022N) VH: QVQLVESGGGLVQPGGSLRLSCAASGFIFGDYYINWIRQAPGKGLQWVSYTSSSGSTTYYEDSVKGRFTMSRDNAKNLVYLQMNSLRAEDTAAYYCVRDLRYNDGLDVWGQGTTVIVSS VL: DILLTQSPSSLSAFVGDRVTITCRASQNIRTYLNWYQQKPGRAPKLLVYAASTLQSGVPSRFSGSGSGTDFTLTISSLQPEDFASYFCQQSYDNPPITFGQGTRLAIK , is 100 nM Ag Bound (RU) under 100 RU?
Ans: NO
